Data provenance is patent US8178506B2.

System: HeLa cells
Protocol description: Cell cycle assay in HeLa cells
Assay type: cell-based, human
Reported conditions: HeLa cells, 150 nM oligomeric compound, 48 hours after treatment; relative to untreated control (UTC=100)
In the oligonucleotide strings, read from the 5' end, every base follows the letter of its sugar. An asterisk marks phosphorothioate; unmarked linkages are phosphodiester. Other units and linkages are bracketed, terminal groups are in braces. A string of capitals states the bases alone. e = 2'-O-(2-methoxyethyl) (MOE); [5mC] = 5-methylcytosine; d = 2'-deoxy (DNA)
Measurement kind: % cells in cell cycle phase: subG1 (%)
Report the value in % with no unit label.

Provide % cells in cell cycle phase: subG1, recorded with HeLa cells, of 328644 (eG*eA*e[5mC]*eA*eA*dG*dG*dT*dG*dG*dG*dA*dG*d[5mC]*dG*eA*eG*eT*eG*eG; antisense) [compound 328644] 52

Provide % cells in cell cycle phase: subG1, recorded with HeLa cells, of 327903 (antisense eA*eA*e[5mC]*eT*eA*eT*eA*e[5mC]*eA*eA*e[5mC]*e[5mC]*eT*eA*e[5mC]*eT*eA*e[5mC]*e[5mC]*eT*e[5mC]*eA) [compound 327903] 74

Provide % cells in cell cycle phase: subG1, recorded with HeLa cells, of 328119 (antisense eA*eA*eT*eA*eA*e[5mC]*eA*e[5mC]*eA*e[5mC]*eA*eT*e[5mC]*e[5mC]*eA*e[5mC]*eT*eT*eT*eA*eA) [compound 328119] 767

Provide % cells in cell cycle phase: subG1, recorded with HeLa cells, of 328724 (antisense eG*eA*e[5mC]*eA*eT*d[5mC]*dA*dT*dG*dT*dG*dA*dT*dT*dT*eG*e[5mC]*eT*e[5mC]*eA) [compound 328724] 653

Provide % cells in cell cycle phase: subG1, recorded with HeLa cells, of 327906 (antisense eT*e[5mC]*eA*eT*eA*eG*e[5mC]*e[5mC]*e[5mC]*eT*eG*eT*eA*e[5mC]*eA*eA*eT*eG*e[5mC]*eT*eG*e[5mC]*eT) [compound 327906] 57

====

Test system: PEPCK-c
Protocol description: PEPCK-c mRNA expression in HepG2 cells
Assay type: cell-based, human
Reported conditions: HepG2, basal (no insulin), 100 nM
In the oligonucleotide strings, read from the 5' end, every base follows the letter of its sugar. An asterisk marks phosphorothioate; unmarked linkages are phosphodiester. Other units and linkages are bracketed, terminal groups are in braces. A string of capitals states the bases alone. e = 2'-O-(2-methoxyethyl) (MOE); [5mC] = 5-methylcytosine; d = 2'-deoxy (DNA)
Measurement kind: decrease in PEPCK-c mRNA (%)
Report the value in % with no unit label.

Provide decrease in PEPCK-c mRNA, recorded with PEPCK-c, of CGCGTACCAAAAGTAATAATG (anti-miR; chemistry not fully specified) [ISIS 327886, uniform 2′-MOE PS; targets mir-123/mir-126as] 39

Provide decrease in PEPCK-c mRNA, recorded with PEPCK-c, of ISIS 341804: SEQ ID NO: 761, targeting mir-94/mir-106b (antisense ATCTGCACTGTCAGCACTTT; all 2'-MOE, all phosphorothioate, methylation of C not given here) 56

Provide decrease in PEPCK-c mRNA, recorded with PEPCK-c, of GCTACCTGCACTGTAAGCACTTTT (chemistry not given here) [ISIS 327911, uniform 2′-MOE PS; targets mir-106] 48

Provide decrease in PEPCK-c mRNA, recorded with PEPCK-c, of GAGACCCAGTAGCCAGATGTAGCT (chemistry not given here) [ISIS 327920, uniform 2′-MOE PS; targets mir-222] 48

Provide decrease in PEPCK-c mRNA, recorded with PEPCK-c, of ISIS 328761: oligomeric compound targeting hypothetical mir-138 (antisense eG*e[5mC]*eA*eG*eG*d[5mC]*dT*dA*dA*dA*dA*dG*dA*dA*dA*eT*eA*eA*eG*e[5mC]) 52

Provide decrease in PEPCK-c mRNA, recorded with PEPCK-c, of TCAGTTTTGCATGGATTTGCACA (anti-miR; chemistry not fully specified) [ISIS 327922, uniform 2′-MOE PS; targets mir-19b-2] 23

Provide decrease in PEPCK-c mRNA, recorded with PEPCK-c, of CAGTGAATTCTACCAGTGCCATA (anti-miR; chemistry not fully specified) [ISIS 327899, uniform 2′-MOE PS; targets mir-183] 58

Provide decrease in PEPCK-c mRNA, recorded with PEPCK-c, of ISIS 341805: SEQ ID NO: 762, targeting mir-184 (antisense ACCCTTATCAGTTCTCCGTCCA; all 2'-MOE, all phosphorothioate, methylation of C not given here) 60

Provide decrease in PEPCK-c mRNA, recorded with PEPCK-c, of CTAGTGGTCCTAAACATTTCAC (chemistry not given here) [ISIS 327878, uniform 2′-MOE PS; targets mir-203] 55
